Consider the following molecules; for each one, report its Effect on heart rate in beats per minute.
Test system: Guinea-pigs (Dunkin-Hartley-Pirbright, male)
Assay: Cardiotonic effect: LV-dP/dtmax and heart rate in anaesthetised guinea-pigs
Format: in vivo, guinea-pig
Details: after a dose of 3 mg/kg i.v.; averages from 2 to 3 tests
Method: Cardiotonic effect with antiadrenergic activity Guinea-pigs (Dunkin-Hartley-Pirbright, male, 450-600 g) were anaesthetised with hexobarbital-sodium (150 mg/kg i.p.). […] The left ventricular pressure (LVP) was measured with a Millar PR-249 catheter-tip manometer inserted into the left ventricle through the left carotid artery. […] The arterial blood pressure was recorded by a cannula in the right carotid artery using a Bell & Howell pressure recorder. The heart rate was also measured. […]
Give bare numbers, in beats per minute.

{"molecule": "Cc1cc(C2=NNC(=O)CC2)ccc1OCCCNCC(O)COc1ccc(CCOCC2CC2)cc1 (stereo not shown) [Substance O]", "units": "beats per minute", "Effect on heart rate in beats per minute": -116}
{"molecule": "O=C1CCC(c2ccc(OCCNCC(O)COc3ccc(CCOCC4CCC4)cc3)cc2)=NN1 (stereo not shown) [Substance E]", "units": "beats per minute", "Effect on heart rate in beats per minute": -71}
{"molecule": "CC(C)OCCOCc1ccc(OCC(O)CNCCOc2ccc(-c3ccc(=O)[nH]n3)cc2)cc1 (stereo not shown) [Substance G]", "units": "beats per minute", "Effect on heart rate in beats per minute": -36}

Provide Effect on heart rate in beats per minute values for the following items, in order.
1. O=C1CCC(c2ccc3c(c2)ncn3CCNCC(O)COc2ccc(CCOCC3CC3)cc2)=NN1 (stereo not shown) [Substance B]
2. CC(C)COCCc1ccc(OCC(O)CNC(C)(C)Cn2cnc3cc(C4=NNC(=O)CC4)ccc32)cc1 (stereo not shown) [Substance I]
3. CC(C)OCCOCc1ccc(OCC(O)CNCCOc2ccc(C3=NNC(=O)CC3)cc2)cc1 (stereo not shown) [Substance F]
4. Cc1cc(C2=NNC(=O)CC2)ccc1OCCNCC(O)COc1ccc(CCOCC2CC2)cc1 (stereo not shown) [Substance M]

1. -47
2. -59
3. -94
4. -64
